- targetSystem: PRMT5-MEP50 (Homo sapiens, UniProt O14744)
- Sequence (O14744 whole entry): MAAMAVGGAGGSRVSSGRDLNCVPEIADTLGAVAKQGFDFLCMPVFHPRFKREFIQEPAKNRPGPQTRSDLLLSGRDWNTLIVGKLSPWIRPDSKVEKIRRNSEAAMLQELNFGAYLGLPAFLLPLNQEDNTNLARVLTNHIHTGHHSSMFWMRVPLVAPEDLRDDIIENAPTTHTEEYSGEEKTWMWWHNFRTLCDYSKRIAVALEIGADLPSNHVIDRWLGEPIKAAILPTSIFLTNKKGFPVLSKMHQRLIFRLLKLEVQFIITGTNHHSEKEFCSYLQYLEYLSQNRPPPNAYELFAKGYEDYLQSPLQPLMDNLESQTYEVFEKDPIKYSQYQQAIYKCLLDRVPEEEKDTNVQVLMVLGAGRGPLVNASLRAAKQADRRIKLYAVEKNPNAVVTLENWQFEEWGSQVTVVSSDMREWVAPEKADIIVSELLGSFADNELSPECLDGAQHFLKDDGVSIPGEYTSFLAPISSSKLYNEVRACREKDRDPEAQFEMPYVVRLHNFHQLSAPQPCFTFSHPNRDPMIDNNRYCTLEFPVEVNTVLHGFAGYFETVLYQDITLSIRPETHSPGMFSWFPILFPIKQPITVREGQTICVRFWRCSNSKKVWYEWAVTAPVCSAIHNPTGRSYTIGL
- Sequence (Q9BQA1 whole entry partner): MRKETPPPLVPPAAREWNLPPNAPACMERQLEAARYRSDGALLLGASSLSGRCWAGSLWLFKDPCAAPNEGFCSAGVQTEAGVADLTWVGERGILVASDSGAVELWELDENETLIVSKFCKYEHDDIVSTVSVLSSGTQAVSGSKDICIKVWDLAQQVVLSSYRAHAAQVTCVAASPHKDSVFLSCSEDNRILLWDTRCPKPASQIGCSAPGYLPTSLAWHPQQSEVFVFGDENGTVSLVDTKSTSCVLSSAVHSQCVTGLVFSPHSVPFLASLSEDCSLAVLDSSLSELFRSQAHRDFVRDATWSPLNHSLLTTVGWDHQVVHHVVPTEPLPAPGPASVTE
- protocolNotes: PRMT5 assay (3H-SAM flashplate)
- testConditions: Table 4; PRMT5 biochemical assay
pIC50: −log10 of the molar value.
quantity: pIC50

Result for Cn1ccc(-c2cn([C@@H]3O[C@H](C(=O)Nc4cc[nH]n4)[C@@H](O)[C@H]3O)c3ncnc(N)c23)n1 [Compound I-170] , tested on PRMT5-MEP50 (Homo sapiens, UniProt O14744), pIC50: ≤ 6.00

// returns pIC50 for CN1CCC[C@@H](NC(=O)[C@H]2O[C@@H](n3cc(-c4ccn(C)n4)c4c(N)ncnc43)[C@H](O)[C@@H]2O)C1 [Compound I-46] with PRMT5-MEP50 (Homo sapiens, UniProt O14744); value = 7.00 to 8.00

Lab note: compound Cn1ccc(-c2cn([C@@H]3O[C@H](C(=O)Nc4ccnc(NC5CCC5)c4)[C@@H](O)[C@H]3O)c3ncnc(N)c23)n1 [Compound I-167] tested on PRMT5-MEP50 (Homo sapiens, UniProt O14744); recorded pIC50 was 6.00 to 7.00

// returns pIC50 for Cn1ccc(-c2cn([C@@H]3O[C@H](C(=O)Nc4ccon4)[C@@H](O)[C@H]3O)c3ncnc(N)c23)n1 [Compound I-171] with PRMT5-MEP50 (Homo sapiens, UniProt O14744); value = ≤ 6.00

pIC50 for PRMT5-MEP50 (Homo sapiens, UniProt O14744) with input CNc1ccc2ccc(NC(=O)[C@H]3O[C@@H](n4cc(-c5ccn(C)n5)c5c(N)ncnc54)C[C@@H]3O)cc2n1 [Compound I-35] equals 7.00 to 8.00

# value of pIC50, PRMT5-MEP50 (Homo sapiens, UniProt O14744), item CNc1ccc2ccc(NC(=O)[C@H]3O[C@@H](n4ccc5c(N)ncnc54)[C@@H](F)[C@@H]3O)cc2n1 [Compound I-62] = > 8.00

Tested system PRMT5-MEP50 (Homo sapiens, UniProt O14744); pIC50 recorded for Cn1ccc(-c2cn([C@@H]3O[C@H](C(=O)N4CCCC(NS(C)(=O)=O)C4)[C@@H](O)[C@H]3O)c3ncnc(N)c23)n1 (stereo in doubt) [Compound I-185] was 6.00 to 7.00

Considering CN1CCC(N(C(=O)[C@H]2O[C@@H](n3cc(-c4ccn(C)n4)c4c(N)ncnc43)[C@H](O)[C@@H]2O)C2CC2)CC1 [Compound I-149] , its pIC50 with PRMT5-MEP50 (Homo sapiens, UniProt O14744) was recorded as > 8.00

Entry CC(O)CCN(C(=O)[C@H]1O[C@@H](n2cc(-c3ccn(C)n3)c3c(N)ncnc32)[C@H](O)[C@@H]1O)C1CCN(C)CC1 (stereo partly shown) [Compound I-148] , PRMT5-MEP50 (Homo sapiens, UniProt O14744) data, pIC50 value: 7.00 to 8.00

Record Cn1ccc(-c2cn([C@@H]3O[C@H](C(=O)N[C@H]4CC[C@@](C)(O)CC4)[C@@H](O)[C@H]3O)c3ncnc(N)c23)n1 [Compound I-209] ; system PRMT5-MEP50 (Homo sapiens, UniProt O14744); pIC50 = ≤ 6.00

PRMT5-MEP50 (Homo sapiens, UniProt O14744) assay, compound CN1CCC(N(CCCC(=O)O)C(=O)[C@H]2O[C@@H](n3cc(-c4ccn(C)n4)c4c(N)ncnc43)[C@H](O)[C@@H]2O)CC1 [Compound I-58] , recorded pIC50 = 7.00 to 8.00

Summary: CNc1cccc(CCNC(=O)[C@H]2O[C@@H](n3cc(-c4ccn(C)n4)c4c(N)ncnc43)[C@H](O)[C@@H]2O)n1 [Compound I-193] , PRMT5-MEP50 (Homo sapiens, UniProt O14744), pIC50 = ≤ 6.00

CN(C)CCCNC(=O)[C@H]1O[C@@H](n2cc(-c3ccn(C)n3)c3c(N)ncnc32)[C@H](O)[C@@H]1O [Compound I-183] tested on PRMT5-MEP50 (Homo sapiens, UniProt O14744) gave pIC50: 7.00 to 8.00
